Catalogue of IC50 readings, one per entry.
Tested on: phosphorylation of CDK1 at Thr14 in HCC1806 cells
MEASUREMENT_NOTES: Cell lysate AlphaLISA assay measuring inhibition of phosphorylation of CDK1 Thr14
Assay type: cell-based
MEASUREMENT_PARAMETERS: 4 hours, read-out: Cellular IC50

Q: Using the record for Cc1c(O)cccc1-c1c(N)c(C(N)=O)cc2nccnc12 (single isomer, unassigned) [Compound 89] , report its IC50.
Ans: ≥ 5 µM

Q: Note, next up: NC(=O)c1cc2nccnc2c(-c2cc(O)cnc2Cl)c1N (atropisomer, axis not shown) [Compound 164]
Ans: ≥ 5 µM

Q: Note, next up: Cc1c(O)cc(Cl)cc1-c1c(N)c(C(N)=O)nc2cccnc12 (atropisomer, axis not shown) [Compound 290]
Ans: 0.05 to 0.5 µM

Q: Note, next up: Cc1c(O)cccc1-c1c(N)c(C(N)=O)cc2ncccc12 (atropisomer, axis not shown; (P)) [Compound 69]
Ans: ≥ 5 µM
